Reference source for all entries: a melting point compilation (Tetko et al.)

experimental conditions: a range is the spread between reports
readout: melting point

Kindly indicate its recorded melting point. Item: CCCC(C)Br (stereo unspecified)
-96 to -95.5 °C

Please look at this compound and report its melting point: "COc1cc(C=O)cc(OC)c1"
46 to 47 °C

Give the reported melting point for this compound. "Nc1cccc2ccccc12"
48 to 49.2 °C

State its melting point for this compound: "BrCCCCOc1ccccc1"
41 to 42 °C

Consider the compound "C=CC(=O)OC" . State its measured melting point.
-76.5 to -75 °C

Output melting point of "Cc1c[nH]c(=O)[nH]c1=O"
316 to 317 °C

Give the measured melting point for "CN(C)C(=O)Nc1ccc(Cl)c(Cl)c1"
158 to 159 °C

Please give measured melting point of the following entry: "OCc1c(F)c(F)c(F)c(F)c1F"
34 to 37.5 °C

Please report the measured melting point for "CCCC#CCCC"
-103 to -101 °C

Given "NCCCCCCN" , respond with its melting point.
39 to 41.5 °C

// Input: "Cc1ccc([N+](=O)[O-])c(F)c1" . Output its melting point only.
53 to 53.2 °C

In one line, give reported melting point of the entry "COC(=O)c1cc(OC)c(OC)c(OC)c1" .
83 to 85 °C

Output measured melting point for this item: "c1ccc(-c2ccc(-c3ccccc3)o2)cc1"
88 to 91 °C

For the compound "C(CC1CCNCC1)CC1CCNCC1" , report melting point.
66 to 67.1 °C

# return recorded melting point for entry "Cc1ccccc1C"
-25.2 to -25 °C

Note down melting point recorded for "Fc1ccc(C(F)(F)F)cc1"
-42 to -41.7 °C
